The origin of these recorded values is the supplement of paper PMC5998384.

- System: HeLa Kyoto;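 also: synchronized HeLa Kyoto cells (double thymidine block for G1/S, nocodazole release for mitosis), protein amounts in NP-40 versus SDS lysates quantified by mass spectrometry, three biological replicates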
- Method Summary: solubility change mitosis vs G1/S (difference of NP-40 vs SDS log2 ratios) (log2 ratio difference); higher = more soluble in mitosis
Endpoint: solubility change mitosis (log2)
When you answer, write just the number.

MAVRSLWAGRLRVQRLLAWSAAWESKGWPLPFSTATQRTAGEDCRSEDPPDELGPPLAERALRVKAVKLEKEVQDLTVRYQRAIADCENIRRRTQRCVEDAKIFGIQSFCKDLVEVADILEKTTECISEESEPEDQKLTLEKVFRGLLLLEAKLKSVFAKHGLEKLTPIGDKYDPHEHELICHVPAGVGVQPGTVALVRQDGYKLHGRTIRLARVEVAVESQRRL [GRPEL2] = -0.104

Endpoint output: solubility change mitosis (log2) of MAGGRCGPQLTALLAAWIAAVAATAGPEEAALPPEQSRVQPMTASNWTLVMEGEWMLKFYAPWCPSCQQTDSEWEAFAKNGEILQISVGKVDVIQEPGLSGRFFVTTLPAFFHAKDGIFRRYRGPGIFEDLQNYILEKKWQSVEPLTGWKSPASLTMSGMAGLFSISGKIWHLHNYFTVTLGIPAWCSYVFFVIATLVFGLFMGLVLVVISECFYVPLPRHLSERSEQNRRSEEAHRAEQLQDAEEEKDDSNEEENKDSLVDDEEEKEDLGDEDEAEEEEEEDNLAAGVDEERSEANDQGPPGEDGVTREEVEPEEAEEGISEQPCPADTEVVEDSLRQRKSQHADKGL [TMX4] . Value?
-0.172

Next entry: MGGTTSTRRVTFEADENENITVVKGIRLSENVIDRMKESSPSGSKSQRYSGAYGASVSDEELKRRVAEELALEQAKKESEDQKRLKQAKELDRERAAANEQLTRAILRERICSEEERAKAKHLARQLEEKDRVLKKQDAFYKEQLARLEERSSEFYRVTTEQYQKAAEEVEAKFKRYESHPVCADLQAKILQCYRENTHQTLKCSALATQYMHCVNHAKQSMLEKGG [CHCHD3]
0.291

// same read-out, input: MSQAVQTNGTQPLSKTWELSLYELQRTPQEAITDGLEIVVSPRSLHSELMCPICLDMLKNTMTTKECLHRFCADCIITALRSGNKECPTCRKKLVSKRSLRPDPNFDALISKIYPSRDEYEAHQERVLARINKHNNQQALSHSIEEGLKIQAMNRLQRGKKQQIENGSGAEDNGDSSHCSNASTHSNQEAGPSNKRTKTSDDSGLELDNNNAAMAIDPVMDGASEIELVFRPHPTLMEKDDSAQTRYIKTSGNATVDHLSKYLAVRLALEELRSKGESNQMNLDTASEKQYTIYIATASGQFTVLNGSFSLELVSEKYWKVNKPMELYYAPTKEHK [RNF2]
0.211

Input MEAVATATAAKEPDKGCIEPGPGHWGELSRTPVPSKPQDKVEAAEATPVALDSDTSGAENAAVSAMLHAVAASRLPVCSQQQGEPDLTEHEKVAILAQLYHEKPLVFLERFRTGLREEHLACFGHVRGDHRADFYCAEVARQGTARPRTLRTRLRNRRYAALRELIQGGEYFSDEQMRFRAPLLYEQYIGQYLTQEELSARTPTHQPPKPGSPGRPACPLSNLLLQSYEERELQQRLLQQQEEEEACLEEEEEEEDSDEEDQRSGKDSEAWVPDSEERLILREEFTSRMHQRFLDGKDGDFDYSTVDDNPDFDNLDIVARDEEERYFDEEEPEDAPSPELDGD [CCDC97]
0.36

Can you check MESGDEAAIERHRVHLRSATLRDAVPATLHLLPCEVAVDGPAPVGRFFTPAIRQGPEGLEVSFRGRCLRGEEVAVPPGLVGYVMVTEEKKVSMGKPDPLRDSGTDDQEEEPLERDFDRFIGATANFSRFTLWGLETIPGPDAKVRGALTWPSLAAAIHAQVPED [RNASEH2C] next?
-0.016

Please give the result for MEDTPLVISKQKTEVVCGVPTQVVCTAFSSHILVVVTQFGKMGTLVSLEPSSVASDVSKPVLTTKVLLGQDEPLIHVFAKNLVAFVSQEAGNRAVLLAVAVKDKSMEGLKALREVIRVCQVW [PSMG3] too.
-0.0857

Further, for GPATCH8 ?
0.335

Proceed to MLVLRSALTRALASRTLAPQMCSSFATGPRQYDGIFYEFRSYYLKPSKMNEFLENFEKNAHLRTAHSELVGYWSVEFGGRMNTVFHIWKYDNFAHRTEVRKALAKDKEWQEQFLIPNLALIDKQESEITYLVPWCKLEKPPKEGVYELATFQMKPGGPALWGDAFKRAVHAHVNLGYTKLVGVFHTEYGALNRVHVLWWNESADSRAAGRHKSHEDPRVVAAVRESVNYLVSQQNMLLIPTSFSPLK [NIPSNAP3A]
-0.224
